experiment: gradient 5% acetonitrile 3 min, to 50% in 2 min, to 85% in 15 min, held 3 min, 100 µL/min; details: column: Zorbax Extend-C18 2.1 x 50 mm; eluents: water / acetonitrile, 0.1% formic acid
Threshold 800 s. RP-LC retention time below it: t. RP-LC retention time at it or above: f.

>>> df
                                    compound  group_label
 0  Cc1ccc(C2(O)C(=O)N(CC(=O)Nc3ccccc3F)c3ccccc32)cc1 (centres undefined)            t
 1  COc1ccc(NC(=O)Cn2c(N3CCOCC3)nc(C)cc2=O)cc1Cl            f
 2  CC(=O)c1ccc(NC(=O)CNS(=O)(=O)c2ccc(C(C)(C)C)cc2)cc1            t
 3  Cc1ccc(-c2cn3ccn(-c4ccc(F)cc4)c(=O)c3n2)c(C)c1            f
 4  CC1(C(=O)NCc2ccccc2)CCCN(C(=O)Nc2cccc(Cl)c2)C1 (centres undefined)            f
 5  COC(=O)c1ccc2c(=O)n(-c3ccc(Cl)cc3)c(N3CCN(c4ccccn4)CC3)nc2c1            t
 6  Cc1ccc(Cl)cc1N1CCN(c2ccc3cc(S(=O)(=O)N4CCCC4)ccc3n2)CC1            f
 7  CC(=O)Nc1cccc(-c2nc(-c3ccc4c(c3)oc(=O)n4C)no2)c1C            t
 8  COCCn1c(C2CCN(C(=O)Cc3ccc(Cl)cc3)C2)nc2ccncc21 (centres undefined)            t
 9  O=C1CN(S(=O)(=O)c2cccc(Cl)c2)CC2(CCOCC2)N1CC1CC1            f
10  O=C(NCCC1=CCCCC1)C1CCCN(c2ccnc(-c3ccc(F)cc3)n2)C1 (centres undefined)            t
11                 O=C(Cn1ncccc1=O)NCc1ccco1            t
12  COc1ccc(C2Cn3nnc(-c4nc(-c5ccccc5F)no4)c3CO2)cc1 (centres undefined)            f
13  CCC(C)NC(=O)Cn1nc2c(Oc3ccccc3)nc3ccccc3n2c1=O (centres undefined)            f
14  COc1ccc(OC)c(COCC(O)CN2CCc3cc(OC)c(OC)cc3C2)c1 (centres undefined)            t
15   CCOC(=O)c1cnc2c(-c3ccc(F)cc3)c(C)nn2c1N            f
16  O=C(c1nnc(-c2ccc(S(=O)(=O)N3CCCC3)cc2)o1)N1CCCCCC1            f

====

Listed compounds paired with reported RP-LC retention time
test: gradient 5% acetonitrile 3 min, to 50% in 2 min, to 85% in 15 min, held 3 min, 100 µL/min; settings: column: Zorbax Extend-C18 2.1 x 50 mm; eluents: water / acetonitrile, 0.1% formic acid
Recorded Endpoint: RP-LC retention time (s)

>>> df
                                   compound  value_measured
0  CCc1cccc(NC(=O)c2cc3sccc3n2Cc2ccc(Cl)cc2)c1            1340
1  COc1cc(Cn2c(N)c(C#N)c3nc4ccccc4nc32)cc(OC)c1OC             720
2  CC(=O)Oc1cc2c(C(=O)NCC3CCCO3)c(C)oc2c2ccccc12 (centres undefined)             809
3  CCOc1ccc(CNC(=O)C2CCCN(S(=O)(=O)c3ccc4c(ccn4CC)c3)C2)cc1 (centres undefined)            1040
4  Cc1cc(C)nc(NS(=O)(=O)c2ccc(Nc3nc(-c4ccc(C(C)C)cc4)cs3)cc2)n1            1120
5  CCOC(=O)c1c(C)[nH]c(CCC(=O)NCc2ccc3c(c2)OCO3)c1C             738
6       Cc1cccc(OCC(=O)Nc2cccn3nc(C)nc23)c1             834
7  Cc1csc(C(=O)Nc2ccc(CC(=O)N3CCC(O)CC3)cc2)c1             635
8  Cc1ccc(-c2nnc(-c3ccccc3)o2)cc1S(=O)(=O)N1CCOCC1             922

====

experiment: gradient 5% acetonitrile 3 min, to 50% in 2 min, to 85% in 15 min, held 3 min, 100 µL/min; settings: column: Zorbax Extend-C18 2.1 x 50 mm; eluents: water / acetonitrile, 0.1% formic acid
# RP-LC retention time values compiled below
Recorded Endpoint: RP-LC retention time (s)

                      smiles_representation     recorded_endpoint  value_measured
0  O=C(NCCc1ccccc1)Nc1nccn(-c2ccc(F)c(F)c2)c1=O  RP-LC retention time             903
1  O=C(NCCCN1CCCC1=O)c1ccc2ncnc(N3CCCC3)c2c1  RP-LC retention time             570
2  Cc1cc(N2CCN(S(=O)(=O)c3ccc(Cl)cc3)CC2)nc(NC2CCCCC2)n1  RP-LC retention time             884
3  Cc1ccc(C)c(N2CCN(S(=O)(=O)c3ccc(-c4c(C)noc4C)cc3)CC2)c1  RP-LC retention time            1250
4  CCSc1nnc(NC(=O)Cn2c(-c3cnccn3)nc3ccccc32)s1  RP-LC retention time             701
5  O=S(=O)(c1ccc(-c2noc(-c3ccccc3F)n2)cc1)N1CCOCC1  RP-LC retention time            1030
6  COc1ccc(-c2noc(CN3C(=O)COc4ccccc43)n2)c(OC)c1  RP-LC retention time             887
7  Cc1nn2c(N3CCN(c4ccccn4)CC3)c3c(nc2c1-c1ccccc1)CCC3  RP-LC retention time             720
8  CC(=O)N1CCC(C(=O)NCc2c(-c3ccccc3)nc3sc(C)nn23)CC1  RP-LC retention time             729

====

assay: gradient 5% acetonitrile 3 min, to 50% in 2 min, to 85% in 15 min, held 3 min, 100 µL/min; details: column: Zorbax Extend-C18 2.1 x 50 mm; eluents: water / acetonitrile, 0.1% formic acid
Criterion: RP-LC retention time meeting or surpassing 800 s. Met: Criterion met. Not met: Criterion not met.

                                   compound        group_label
0  Cc1ccc2c(Nc3cccc(C(C)C)c3)c(C(=O)N3CCC(C)CC3)cnc2n1  Criterion not met
1  Cc1csc(-c2ccc(N3CCN(C(=O)COc4ccc(Cl)cc4)CC3)nc2)n1      Criterion met
2  CCOc1ccc(C2Cn3nnc(-c4nc(-c5ccsc5)no4)c3CO2)cc1 (centres undefined)      Criterion met
3  O=C1CCCC2=C1C(c1ccco1)N(C(=O)CCC(=O)N1CCOCC1)c1ccccc1N2 (centres undefined)  Criterion not met
4  COc1cc(OC)c(NC(=O)Cn2ccc3sccc3c2=O)cc1Cl  Criterion not met
5  Cc1oc2ncnc(N3CCCC(C(=O)Nc4cccc(Cl)c4)C3)c2c1C (centres undefined)      Criterion met
6  CCSc1nnc(NC(=O)C2CCCN(Cc3nc(-c4cccs4)no3)C2)s1 (centres undefined)  Criterion not met

====

assay: gradient 5% acetonitrile 3 min, to 50% in 2 min, to 85% in 15 min, held 3 min, 100 µL/min; conditions: column: Zorbax Extend-C18 2.1 x 50 mm; eluents: water / acetonitrile, 0.1% formic acid
Recorded Endpoint: RP-LC retention time

In [3]: df
Out[3]:
                      smiles_representation  value_measured
0  COc1cc(-c2nc3cc(C)ccn3c2Nc2ccc3c(c2)OCCO3)ccc1O           636 s
1  COc1ccc(N2C=C(C#N)S(=O)(=O)c3c(F)cccc32)cc1OC           844 s
2        Cc1ccccc1Nc1c(-c2ccccn2)nc2cnccn12           941 s
3  CC(C)c1ccc2nc3ccc(C(=O)NCCN(C)C)cn3c(=O)c2c1           631 s
4  Cn1cc(OCc2ccccc2)c(=O)cc1C(=O)N1CCN(c2ccccn2)CC1           538 s

====

test: gradient 5% acetonitrile 3 min, to 50% in 2 min, to 85% in 15 min, held 3 min, 100 µL/min; settings: column: Zorbax Extend-C18 2.1 x 50 mm; eluents: water / acetonitrile, 0.1% formic acid
Rule: RP-LC retention time below 700 s gives Yes, anything at or above gives No.

In [3]: df
Out[3]:
                                    compound  group_label
 0    Cc1nnc(NC(=O)CNC(=O)c2ccc(=O)[nH]c2)s1          Yes
 1  N#Cc1ccc(-c2nc(-c3cccc(-c4ccn[nH]4)c3)no2)cc1           No
 2  Cc1cc(C)cc(N2CCC(NC(=O)Nc3ccc(F)cc3F)C2=O)c1 (stereo not given)           No
 3  Cc1ccc(NC(=O)N2CCN(c3nc(N)nc4sc(-c5cccnc5)nc34)CC2)cc1           No
 4  Cc1ccc(CN2CCCn3nc(C(=O)NCCCN4CCOCC4)cc3C2=O)cc1          Yes
 5  COc1ccccc1N1CCN(c2nc3ccccc3cc2-c2noc(C)n2)CC1          Yes
 6  Cc1ccc(Cn2cc(-c3ccncc3)cc2C(=O)NCc2ccc(C)o2)cc1           No
 7  O=C(Nc1nc2ccc([N+](=O)[O-])cc2s1)c1ccc(S(=O)(=O)N2CCCCC2)cc1           No
 8  CCCC(C)C(=O)N1CCCN(C2=NS(=O)(=O)C(c3ccc(CC)cc3)=C2C)CC1 (stereo not given)           No
 9  Cc1noc(C2CN(C(=O)CCC3CCCC3)CC23CCOCC3)n1 (stereo not given)           No
10    CN1CCN(S(=O)(=O)c2ccc(C3CCCCC3)cc2)CC1          Yes
11  CCOc1ccc(-c2cn3ccn(-c4ccc(F)c(Cl)c4)c(=O)c3n2)cc1           No
12  O=C(CCc1nnc2c(N3CCCCC3)nc3ccccc3n12)NCc1ccccc1F           No
13    CN(C)c1ccc(C(=O)Nc2cc(-c3cccs3)no2)cc1           No
14       COc1ccc(NC(=O)/C=C/c2ccc(Cl)cc2)cc1           No
15  Cc1ccc(C(C)NC(=O)c2cn3ccncc3n2)c(C)c1 (stereo not given)           No
16    O=C(CCc1cc2ccccc2[nH]c1=O)NCCN1CCCCCC1          Yes
17  O=C(CCc1c(-c2ccc(F)cc2)nc2ccccn12)Nc1cccc(F)c1          Yes
18     CCn1cc(Br)c(C(=O)Nc2ccc(C(C)=O)cc2)n1           No
19  COc1ccccc1N1CCN(C(=O)c2sc3cccc(F)c3c2OC)CC1           No
20  CC1CCN(CCNC(=O)C2CCCN(c3ncnc4c3nc3n4CCCCC3)C2)CC1 (stereo not given)          Yes
21  CC(C)CC(=O)Nc1ccc(-n2cnc(C(=O)NC3CCCCCC3)c2)nc1           No
22  O=C(NCC(c1ccc2c(c1)OCO2)N1CCOCC1)C(=O)Nc1ccc(F)cc1F (stereo not given)          Yes
23  CCOc1ccc(NC(=O)Cn2cccc2-c2nnc(C3CCC3)o2)cc1           No
24  Cc1cccc(NC(=O)N2CCCC2c2c(C)noc2C)c1 (stereo not given)           No
25  CCc1ccc(OCc2nc(CCN(C)C(=O)Nc3cc(OC)ccc3OC)no2)cc1           No
26              c1cn(-c2cc(N3CCSCC3)ncn2)cn1          Yes
27  Cc1nc2ccn(Cc3ccco3)c(=O)c2cc1C(=O)NCCN1CCOCC1          Yes
28  Cn1c(C2CCN(C(=O)Cc3ccc(Cl)cc3)C2)nc2ccncc21 (stereo not given)          Yes
29  CCOc1ccc(C(=O)NC2CCN(c3cc(-c4ccc(Cl)cc4)[nH]n3)C2)cc1 (stereo not given)           No
30  CC1CCN(c2ccc(-c3cccc(NC(=O)NCc4ccccc4)c3)nn2)CC1           No
31  Cc1ccc(S(=O)(=O)[C@H]2CS(=O)(=O)C[C@@H]2N2CCN(c3ccc(F)cc3)CC2)cc1           No
32  CCOCCCNC(=O)C1CCCN(c2nnc(C)c3c(C)n(-c4ccccc4)nc23)C1 (stereo not given)          Yes
33      Cc1ccc(CNC(=O)c2ccc(-c3cncnc3)nc2)o1          Yes
34  O=C(Cc1ccc(Cl)cc1)N1CCN(c2cc(-c3cccnc3)[nH]n2)CC1          Yes
35  CCOC(=O)N1CCN(C(=O)CSc2ncnc3c2nnn3CC)CC1          Yes
36  CCCCN(C)C(=O)c1ccc(-c2nnc3ccc(NC(=O)CC)cn23)cc1           No

Recorded values, source the METLIN SMRT retention time set (Domingo-Almenara et al. 2019).
